Where do the numbers come from? From BigSolDB 2.1.

conditionsUsed: in n-heptanol, 333.15 K
parameterMeasured: solubility (mole fraction)

Reported solubility (mole fraction) for O=P(O)(O)c1ccccc1 was 0.278

* * *

conditionsUsed: in isopropanol, 288.15 K
parameterMeasured: solubility (mole fraction)
Lab note: write the figure by itself, no unit.

solubility (mole fraction) in this record for O=P(O)(O)c1ccccc1 : 0.265

* * *

conditionsUsed: in n-hexanol, 298.15 K
parameterMeasured: solubility (mole fraction)
Reply briefly: the number, and no unit.

Consider O=P(O)(O)c1ccccc1 . Its measured solubility (mole fraction) is 0.188

* * *

conditionsUsed: in 2-ethoxyethanol, 323.15 K
parameterMeasured: solubility (mole fraction)

Per the record, O=P(O)(O)c1ccccc1 has solubility (mole fraction) of 0.42

* * *

conditionsUsed: in 2-butoxyethanol, 328.15 K
parameterMeasured: solubility (mole fraction)
Lab note: record just the number, no unit beside it.

The recorded solubility (mole fraction) for O=P(O)(O)c1ccccc1 is 0.334

* * *

conditionsUsed: in acetone, 288.15 K
parameterMeasured: solubility (mole fraction)

Lookup result for O=P(O)(O)c1ccccc1 ; measured solubility (mole fraction): 0.13

* * *

conditionsUsed: in n-propanol, 313.15 K
parameterMeasured: solubility (mole fraction)

What the record says about O=P(O)(O)c1ccccc1 : solubility (mole fraction) is 0.321

* * *

conditionsUsed: in 1,4-dioxane, 303.15 K
parameterMeasured: solubility (mole fraction)
Just the number, please, no unit after it.

Record summary for O=P(O)(O)c1ccccc1 : reported solubility (mole fraction) = 0.243

* * *

conditionsUsed: in methanol, 278.15 K
parameterMeasured: solubility (mole fraction)
Lab note: record just the number, no unit beside it.

// solubility (mole fraction) value for O=P(O)(O)c1ccccc1 : 0.299

* * *

conditionsUsed: in 2-butoxyethanol, 288.15 K
parameterMeasured: solubility (mole fraction)
I'd appreciate a reply containing only the number, no unit.

Recorded solubility (mole fraction) (compound O=P(O)(O)c1ccccc1 ): 0.218

* * *

conditionsUsed: in n-heptanol, 293.15 K
parameterMeasured: solubility (mole fraction)
Respond numerically, and do not add a unit to the figure.

So for O=P(O)(O)c1ccccc1 , the logged solubility (mole fraction) turned out to be 0.158

* * *

conditionsUsed: in ethanol, 293.15 K
parameterMeasured: solubility (mole fraction)
Answer using only a numeral; do not append any unit.

Noted for O=P(O)(O)c1ccccc1 : its solubility (mole fraction) reads 0.314

* * *

conditionsUsed: in methanol, 318.15 K
parameterMeasured: solubility (mole fraction)
Just the number, please, no unit attached.

Lab book: solubility (mole fraction) of O=P(O)(O)c1ccccc1 noted as 0.38

* * *

conditionsUsed: in n-propanol, 333.15 K
parameterMeasured: solubility (mole fraction)
Please reply with the number alone, leaving off any unit.

Memo: O=P(O)(O)c1ccccc1 , reported solubility (mole fraction): 0.375

* * *

conditionsUsed: in isopropanol, 328.15 K
parameterMeasured: solubility (mole fraction)
Give the figure only, with no unit attached.

Input O=P(O)(O)c1ccccc1 . Output solubility (mole fraction): 0.376

* * *

conditionsUsed: in acetone, 308.15 K
parameterMeasured: solubility (mole fraction)
A bare number is all that is needed in reply.

solubility (mole fraction) recorded for this compound, O=P(O)(O)c1ccccc1 , is 0.201

* * *

conditionsUsed: in n-pentanol, 308.15 K
parameterMeasured: solubility (mole fraction)
Answer using only a numeral; do not append any unit.

Lab book: solubility (mole fraction) of O=P(O)(O)c1ccccc1 noted as 0.242

* * *

conditionsUsed: in n-propanol, 303.15 K
parameterMeasured: solubility (mole fraction)
Number only, please.

Measured solubility (mole fraction) of O=P(O)(O)c1ccccc1 : 0.296

* * *

conditionsUsed: in n-heptanol, 288.15 K
parameterMeasured: solubility (mole fraction)

Given item O=P(O)(O)c1ccccc1 , the value recorded as its solubility (mole fraction) is 0.143

* * *

conditionsUsed: in n-butanol, 318.15 K
parameterMeasured: solubility (mole fraction)

According to the records, this compound O=P(O)(O)c1ccccc1 displays solubility (mole fraction) of 0.304

* * *

conditionsUsed: in n-octanol, 333.15 K
parameterMeasured: solubility (mole fraction)

solubility (mole fraction) reported for this molecule O=P(O)(O)c1ccccc1 : 0.252

* * *

conditionsUsed: in n-propanol, 293.15 K
parameterMeasured: solubility (mole fraction)
// return just the number, without any unit appended

Memo: O=P(O)(O)c1ccccc1 , reported solubility (mole fraction): 0.271

* * *

conditionsUsed: in isopropanol, 308.15 K
parameterMeasured: solubility (mole fraction)
Simply state the number, no unit and no words.

The recorded solubility (mole fraction) for O=P(O)(O)c1ccccc1 is 0.317

* * *

conditionsUsed: in ethanol, 283.15 K
parameterMeasured: solubility (mole fraction)
Give the figure by itself; no unit, no explanation.

Value of solubility (mole fraction) reported for the molecule O=P(O)(O)c1ccccc1 is 0.295

* * *

conditionsUsed: in 2-ethoxyethanol, 308.15 K
parameterMeasured: solubility (mole fraction)
Just the number, please, no unit attached.

Reported solubility (mole fraction) for O=P(O)(O)c1ccccc1 was 0.378

* * *

conditionsUsed: in 2-ethoxyethanol, 298.15 K
parameterMeasured: solubility (mole fraction)
Respond numerically, and do not add a unit to the figure.

In plain terms, O=P(O)(O)c1ccccc1 has a documented solubility (mole fraction) of 0.35

* * *

conditionsUsed: in 2-ethoxyethanol, 288.15 K
parameterMeasured: solubility (mole fraction)
Respond using a number only.

solubility (mole fraction) reading for O=P(O)(O)c1ccccc1 : 0.327

* * *

conditionsUsed: in n-heptanol, 323.15 K
parameterMeasured: solubility (mole fraction)
I'd appreciate a reply containing only the number, no unit.

Reported solubility (mole fraction) for O=P(O)(O)c1ccccc1 was 0.243

* * *

conditionsUsed: in 2-butoxyethanol, 313.15 K
parameterMeasured: solubility (mole fraction)
Give your answer as a number; write no unit.

Briefly, solubility (mole fraction) measured for O=P(O)(O)c1ccccc1 : 0.283

* * *

conditionsUsed: in 2-methoxyethanol, 308.15 K
parameterMeasured: solubility (mole fraction)

Measured solubility (mole fraction) of O=P(O)(O)c1ccccc1 : 0.408

* * *

conditionsUsed: in n-butanol, 283.15 K
parameterMeasured: solubility (mole fraction)

According to the records, this compound O=P(O)(O)c1ccccc1 displays solubility (mole fraction) of 0.204

* * *

conditionsUsed: in ethanol, 303.15 K
parameterMeasured: solubility (mole fraction)
Write no unit; give the number alone.

Form: compound = O=P(O)(O)c1ccccc1 ; solubility (mole fraction) = 0.334

* * *

conditionsUsed: in methanol, 308.15 K
parameterMeasured: solubility (mole fraction)
Lab note: jot the number down without any unit.

// solubility (mole fraction) lookup, compound = O=P(O)(O)c1ccccc1 , result: 0.357

* * *

conditionsUsed: in n-octanol, 318.15 K
parameterMeasured: solubility (mole fraction)
Answer field: number only, no words.

Just so you know, measured solubility (mole fraction) for O=P(O)(O)c1ccccc1 came out at 0.202

* * *

conditionsUsed: in acetone, 283.15 K
parameterMeasured: solubility (mole fraction)
// return a plain number; no unit text

Sure, the documented solubility (mole fraction) for O=P(O)(O)c1ccccc1 is 0.113

* * *

conditionsUsed: in acetone, 318.15 K
parameterMeasured: solubility (mole fraction)
Would you mind answering with just the numeric figure?

Note to self: solubility (mole fraction) recorded for O=P(O)(O)c1ccccc1 was 0.249

* * *

conditionsUsed: in 2-propoxyethanol, 293.15 K
parameterMeasured: solubility (mole fraction)
Just the number, please.

The reported value for O=P(O)(O)c1ccccc1 in terms of solubility (mole fraction) is 0.28

* * *

conditionsUsed: in methanol, 283.15 K
parameterMeasured: solubility (mole fraction)

Sample O=P(O)(O)c1ccccc1 ; solubility (mole fraction) observed: 0.307

* * *

conditionsUsed: in n-pentanol, 303.15 K
parameterMeasured: solubility (mole fraction)

Consider O=P(O)(O)c1ccccc1 . Its measured solubility (mole fraction) is 0.226

* * *

conditionsUsed: in 2-methoxyethanol, 318.15 K
parameterMeasured: solubility (mole fraction)
# respond with the number and nothing more

Lookup result for O=P(O)(O)c1ccccc1 ; measured solubility (mole fraction): 0.439

* * *

conditionsUsed: in n-propanol, 283.15 K
parameterMeasured: solubility (mole fraction)
Could you respond with only the numeric value?

Sample O=P(O)(O)c1ccccc1 ; solubility (mole fraction) observed: 0.248

* * *

conditionsUsed: in acetone, 273.15 K
parameterMeasured: solubility (mole fraction)
Keep it simple and answer with nothing but the number.

For O=P(O)(O)c1ccccc1 the molecule record lists solubility (mole fraction) as 0.0872

* * *

conditionsUsed: in n-octanol, 328.15 K
parameterMeasured: solubility (mole fraction)

Reported solubility (mole fraction) ( O=P(O)(O)c1ccccc1 ) = 0.234

* * *

conditionsUsed: in n-propanol, 288.15 K
parameterMeasured: solubility (mole fraction)

solubility (mole fraction) recorded for this molecule, O=P(O)(O)c1ccccc1 , is 0.262

* * *

conditionsUsed: in n-pentanol, 293.15 K
parameterMeasured: solubility (mole fraction)

The compound listed as O=P(O)(O)c1ccccc1 shows solubility (mole fraction) equal to 0.199

* * *

conditionsUsed: in n-propanol, 328.15 K
parameterMeasured: solubility (mole fraction)
API note: the answer field is a bare number with no unit suffix.

Reported solubility (mole fraction) ( O=P(O)(O)c1ccccc1 ) = 0.361

* * *

conditionsUsed: in 2-ethoxyethanol, 278.15 K
parameterMeasured: solubility (mole fraction)
Answer with a bare number; do not write a unit.

// solubility (mole fraction) lookup, molecule = O=P(O)(O)c1ccccc1 , result: 0.305
